System: NCI-H23 lung
Assay: NCI-60 one-dose screen, 48 h (100 = growth as untreated, 0 = no growth, -100 = all killed)
Settings: 10 µM unless noted
About 83,000 compounds went through this panel and 20% of them were active in at least one assay; those are over-represented in the sample as a whole.
MEASURE: growth (%)
Number only, in %; omit the unit.

Asked: # returns recorded growth (system: NCI-H23 lung) for N#CC1C(c2ccc(Cl)cc2)=Nc2c(c(-c3ccccc3)nn2-c2ccccc2)C12C(=O)Nc1ccc(Cl)cc12 (stereo not given)
Given back: 50.7

Asked: # returns recorded growth (system: NCI-H23 lung) for CC(=O)OCC1SC(OC(C)=O)C(NC(=O)/C=C/CCl)C(OC(C)=O)C1OC(C)=O (stereo not given)
Given back: 99.7

Asked: # returns recorded growth (system: NCI-H23 lung) for "C=CCn1c(SCC(=O)Nc2ccc(C(=O)/C=C/c3ccc(Cl)cc3)cc2)nnc1-c1cc(OC)c(OC)c(OC)c1"
Given back: 92.9

Asked: # returns recorded growth (system: NCI-H23 lung) for "CNCc1cccc2c1OCCOCCOCCN(CCN1CCOCC1)S(=O)(=O)c1ccc(cc1)-c1cnc(N)c(n1)C(=O)N2"
Given back: 42.3

Asked: # returns recorded growth (system: NCI-H23 lung) for N#CC1(C#N)C2=C(CCCC2)NC(c2c(F)cccc2Cl)C1(C#N)C#N (stereo not given)
Given back: 82

Asked: # returns recorded growth (system: NCI-H23 lung) for Cc1ccc(C2CC(c3ccc(Nc4nc(NCCO)nc(NCCO)n4)cc3)=NN2c2ccc(Cl)cc2)cc1 (stereo not given)
Given back: 71.8

Asked: # returns recorded growth (system: NCI-H23 lung) for "COc1ccccc1Nc1nnc(-c2ccc(Cl)cc2)o1"
Given back: 63.9

Asked: # returns recorded growth (system: NCI-H23 lung) for CCN(CC)c1ccc2c(c1)Oc1nc(N)c(C#N)c(N)c1C2Sc1ccc(OC)cc1 (stereo not given)
Given back: -25.8

Asked: # returns recorded growth (system: NCI-H23 lung) for "O=C1NCc2ccc3c(-c4cccc(Cl)c4)c[nH]c3c21"
Given back: 35.5

Asked: # returns recorded growth (system: NCI-H23 lung) for "NCCN1CCNCC1"
Given back: 94.6

Asked: # returns recorded growth (system: NCI-H23 lung) for "Cc1[nH]c(N=Nc2ccccc2)nc1N=Nc1ccccc1"
Given back: 36.3

Asked: # returns recorded growth (system: NCI-H23 lung) for COc1ccc2c(c1)Oc1nc(N)c(C#N)c(N)c1C2Sc1ccc(SC)cc1 (stereo not given)
Given back: 44.1

Asked: # returns recorded growth (system: NCI-H23 lung) for "COc1ccc(-c2nnc(N3CCN(C(=O)CN4CCN(c5ccccc5)CC4)CC3)nc2-c2ccc(OC)cc2)cc1"
Given back: 48.3

Asked: # returns recorded growth (system: NCI-H23 lung) for "CCCn1c2cc(OCc3cn(-c4ccc(Cl)cc4)nn3)ccc2c2ccnc(C)c21"
Given back: 78.1

Asked: # returns recorded growth (system: NCI-H23 lung) for "CC(C)C1=C[C@@]23CC[C@H]4[C@](C)(COCCC#N)CCC[C@]4(C)[C@H]2C[C@@H]1[C@@H]1[C@H]3[C@@H](OCCC#N)CC[C@@H]1OCCC#N"
Given back: 35.7

Asked: # returns recorded growth (system: NCI-H23 lung) for "N#Cc1c(-c2ccc(F)cc2)nc(N=Nc2c(O)[nH]c3ccc(Cl)cc23)nc1N1CCOCC1"
Given back: 37.4

Asked: # returns recorded growth (system: NCI-H23 lung) for "CCOC(=O)c1c(C)nc2c(c1N)CC(=O)N2CCc1ccccc1"
Given back: 53.2

Asked: # returns recorded growth (system: NCI-H23 lung) for "Sc1cccc2cccnc12"
Given back: 55.4

Asked: # returns recorded growth (system: NCI-H23 lung) for "CCOC(=O)c1c(C)nc2c(c1N)/C(=C/c1cccs1)C(=O)N2c1ccc(OC)cc1"
Given back: 43.9

Asked: # returns recorded growth (system: NCI-H23 lung) for "COc1ccc(/C(=N\O)c2cc(C)c(OC)c(C)c2)cc1O"
Given back: 45.9
